Hi there, I'd appreciate the recorded cell number change for every entry that follows.
Assay: qHTS Assay for Lipid Storage Modulators in Drosophila S3 Cells;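 for cell number change: cells counted by Cell Tracker Red CMTPX staining in the red channel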
Details: BODIPY lipid droplet fluorescence, 18-24 h, cells fed with added oleic acid; measured here: cell count max response
Screen size: about 320,000 compounds; about 2,100 (0.66%) were called active. Roughly 53% stayed inconclusive and do not appear here. The sample holds actives, similar compounds and a random draw of the others, so the mix is not that of the screen.
Answers are plain numbers, in %.

- compound: "O=P(C(Cl)Cl)(N1CCOCC1)N1CCOCC1"
  unitOfMeasure: "%"
  cell number change: 3.63
- compound: "CC(C)N1CCC2(CC1)NC(CO)(CO)CO2"
  unitOfMeasure: "%"
  cell number change: 2.89
- compound: "CC(=O)N(C1=NCCCS1)c1ccc(F)cc1"
  unitOfMeasure: "%"
  cell number change: -2.11
- compound: "O=C(Nc1ccc(F)cc1)N1CC2CC(C1)c1cccc(=O)n1C2 (stereo unspecified)"
  unitOfMeasure: "%"
  cell number change: -3.93
- compound: "CCC(=NCCO)c1c(O)n(-c2ccc(Cl)cc2)c(=O)[nH]c1=O"
  unitOfMeasure: "%"
  cell number change: 11.3
- compound: "O=c1c2cc(Cl)cc(Cl)c2nc(CN2CCOCC2)n1-c1ccccc1F"
  unitOfMeasure: "%"
  cell number change: -6.69

Provide cell number change for all items below, preserving their order.
1. CCOP(=O)(OCC)C(Cc1ccccc1)NC(C)=O (stereo unspecified)
2. CN(C)C(=O)Oc1cccc(NC(=O)c2ccccc2C(F)(F)F)c1
3. Cc1cc(NCCN)nc2ccccc12
4. O=P(O)(O)Cc1ccccc1OP(=O)(c1ccccc1)c1ccccc1
5. COc1ccc(C(=O)N2CCCC2=O)cc1
6. Cn1c(O)c(C=NC2CCCCC2)c(=O)[nH]c1=S

[6.58, -0.228, 15.7, -17.7, 11.9, 4.27]

Hi! Can you tell me cell number change for each of these compounds?
1. Nc1ccccc1C(=O)c1ccccc1
2. CC(=O)N(C1=NCCCS1)c1ccc(Cl)cc1
3. CC(C(O)c1ccccc1)N(C)CCn1cnc2c1c(=O)n(C)c(=O)n2C (stereo unspecified)
4. CCOP(=S)(NN(Cc1ccccc1)C(=O)c1ccccc1)OCC

1. 17.1
2. -2.46
3. 3.11
4. -8.12

---

Assay: qHTS Assay for Lipid Storage Modulators in Drosophila S3 Cells; note: potency is the fitted concentration of half-maximal effect
Conditions: BODIPY lipid droplet fluorescence, 18-24 h, cells fed with added oleic acid; series mostly up to 46.1 µM
The campaign covered roughly 320,000 compounds. About 2,100 (0.66%) were called active. Inconclusive results (about 53%) are left out. The full list was thinned out, with actives kept by preference.
quantityKind: Potency

Study these solved cases before continuing.
- compound: "Cc1ccc2c(c1)C1CN(C)CCC1N2C(=O)c1cccnc1Cl (configuration not stated)"
  Potency: "inactive"
- compound: "Cc1ccccc1-[n+]1c(-c2ccccc2)cc(-c2ccccc2)cc1-c1ccccc1"
  Potency: "23.1 µM (active)"
- compound: "CCOC(=O)C1(CCc2ccccc2)CCN(Cc2csc(C(C)=O)c2)CC1"
  Potency: "inactive"
- compound: "C[n+]1c(-c2ccccc2)cc(-c2ccc(O)cc2)cc1-c1ccccc1"
  Potency: "inactive"
- compound: "OC1(CN2CCOCC2)C2CC3CC(C2)CC1C3 (configuration not stated)"
  Potency: "8.2 µM (active)"
- compound: "CN(C)C(=O)Oc1ccc(OCc2nc3ccccc3[nH]2)cc1"
  Potency: "inactive"

# input for lookup
Potency for CC1(C)C2CC=C(CN3CCOCC3)C1C2 (configuration not stated) ? inactive

---

Assay: qHTS Assay for Lipid Storage Modulators in Drosophila S3 Cells;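 for cell number change: cells counted by Cell Tracker Red CMTPX staining in the red channel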
Details: BODIPY lipid droplet fluorescence, 18-24 h, cells fed with added oleic acid; measured here: cell count max response
About 2,100 (0.66%) of roughly 320,000 compounds were called active. Another 53% or so got no clear call; they are omitted. The full list was thinned out, with actives kept by preference.
I'd be grateful if you could share measured cell number change for these entries.
Give the figure together with its unit, number first.

Recorded results for 6 compounds are shown here.
- compound: "CCOC(=O)c1cccc([P+](=O)O)c1"
  testValue: "4.86%"
- compound: "Cc1ccccc1-n1c(O)c(C(c2ccncc2)c2c(O)n(-c3ccccc3C)c(=O)[nH]c2=O)c(=O)[nH]c1=O"
  testValue: "5.35%"
- compound: "C[n+]1c(-c2ccccc2)cc(-c2ccc(O)cc2)cc1-c1ccccc1"
  testValue: "-18%"
- compound: "C#CC[N+]1(C)[C@@H]2CC(OC(=O)C(CO)c3ccccc3)C[C@H]1C(O)C2 (stereo partly specified)"
  testValue: "7.57%"
- compound: "CCC1CCCCN1CC(=O)c1ccc(OC(F)F)cc1 (stereo unspecified)"
  testValue: "2.66%"
- compound: "CCCNS(=O)(=O)c1ccc(OCC(=O)N2CCN(Cc3ccc4c(c3)OCO4)CC2)c(C)c1"
  testValue: "-6.04%"

Please supply cell number change for each of the following items, keeping them in order.
1. COC(=O)C1=C(c2cccc(OCc3ccccc3)c2)C[C@@H]2CC[C@H]1N2C(=O)NCc1ccccc1OC
2. O=C(Nc1ccc(Cl)c(Cl)c1)c1ccco1
3. CN1C(=O)/C(=C/c2cccn2-c2ccc3ccccc3c2)C(=O)NC1=S

1. -22.5%
2. 4.2%
3. -19%

// for each compound below, give its cell number change
1. CN(C)c1ccc(NC(=O)CN2C(=O)CN=C(c3ccccc3)c3cc(Cl)ccc32)cc1
2. CC(=O)N1N=C2C3CCN(CC3)C2C1c1ccccc1 (stereo unspecified)
3. COc1ccc(CC(C)NC2CCCCCC2)cc1 (stereo unspecified)
4. ClC(Cl)(Cl)c1ccccc1
5. Cc1ccc(CN2C(=O)CN=C(c3ccccc3)c3ccccc32)cc1
6. O[C@@H]1CCCC[C@H]1N1CCC(c2ccccc2)CC1
7. C=CCn1c(O)c(C(C)=NCc2ccc3c(c2)OCO3)c(=O)[nH]c1=O

1. 4.79%
2. 1.69%
3. -21%
4. 2.26%
5. 11.7%
6. -4.74%
7. 5.5%

Each compound below has a reported value. Please supply its cell number change.
1. CSc1ncc(/C=C2/C(=O)NC(=O)N(c3ccc(C)cc3)C2=O)cn1
2. CCOC(=O)c1ccc(N=C(c2ccccc2)c2c(O)n(C)c(=O)n(C)c2=O)cc1
3. Cc1cc(OCC(=O)NCc2ccncc2)c2c3c(c(=O)oc2c1)CCC3

1. 8.62%
2. 1.32%
3. -10.8%

I would be grateful if you could provide cell number change for each of the following entries.
1. O=C1NC(=S)NC(=O)C1=Cc1cccn1-c1ccc(O)cc1
2. O=C1N(c2ccccc2)C(c2cccnc2)N2CCCN12 (stereo unspecified)

1. -0.957%
2. -11.1%

---

Test: qHTS Assay for Lipid Storage Modulators in Drosophila S3 Cells
Conditions: BODIPY lipid droplet fluorescence, 18-24 h, cells fed with added oleic acid; series mostly up to 46.1 µM
Among all 320,000 compounds or so, about 2,100 (0.66%) were called active. Roughly 53% stayed inconclusive and do not appear here. Calls follow the shape of the dose curve; as a rule, active = well fitted inhibition curve with a large enough effect in the signal ratio, with a control signal flat (not every such curve was filed as active); inconclusive = small, poorly fitted or top-dose-only effect, or effect the other way, or a change in a side signal; inactive = flat fitted curve, though single readings scatter; the % refers to the signal ratio. Shown is part of a subset that was picked to be rich in actives.
# valid calls are active, inactive; nothing else

- compound: "Fc1ccccc1CNC1CN2CCC1CC2 (centres undefined)"
  answerLabel: "inactive"
- compound: "CCOC(=O)c1c(C=O)c2ccccc2n1Cc1ccccc1"
  answerLabel: "inactive"

Attention now turns to another entry.
Dear all, I need the recorded test outcome for C=CCn1c(O)c(C(CC)=NCCN2CCN(C(=S)NC)CC2)c(=O)[nH]c1=O , thank you. inactive

---

Experiment: qHTS Assay for Lipid Storage Modulators in Drosophila S3 Cells;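 for cell number change: cells counted by Cell Tracker Red CMTPX staining in the red channel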
Details: BODIPY lipid droplet fluorescence, 18-24 h, cells fed with added oleic acid; measured here: cell count max response
Out of some 320,000 compounds screened, about 2,100 (0.66%) were called active. Another 53% or so got no clear call; they are omitted. What follows is part of a selection rich in actives, with near analogues and random picks from the rest.
quantityKind: cell number change (%)
Numbers only, in %.

- chemicalString: "CCCCn1c(=O)c(C(=O)NCCc2ccccc2)c(O)c2ccccc21"
  testValue: -5.77
- chemicalString: "Cc1ccc2c(c1)=C/C(=C\\c1c(O)[nH]c(=O)[nH]c1=O)C(=O)N=2"
  testValue: -8.48
- chemicalString: "C=CCn1c(C)c(C=C2C(=O)NC(=O)NC2=O)c2ccccc21"
  testValue: 5.7
- chemicalString: "CC(=O)c1cc(C(C)=O)c(C)[n+](C)c1C"
  testValue: 12.6
- chemicalString: "Cc1ccc2c(c1)=C/C(=C\\c1c(O)[nH]c(=S)[nH]c1=O)C(=O)N=2"
  testValue: -16.3

So what's the measured cell number change for this one? CC(=O)c1ccc(OC(=O)N(C)c2ccccc2)cc1 4.78

---

Test: qHTS Assay for Lipid Storage Modulators in Drosophila S3 Cells
Details: BODIPY lipid droplet fluorescence, 18-24 h, cells fed with added oleic acid; series mostly up to 46.1 µM
In all, about 320,000 compounds went through this assay and about 2,100 (0.66%) were called active. Inconclusive results (about 53%) are left out. Calls follow the shape of the dose curve; as a rule, active = well fitted inhibition curve with a large enough effect in the signal ratio, with a control signal flat (not every such curve was filed as active); inconclusive = small, poorly fitted or top-dose-only effect, or effect the other way, or a change in a side signal; inactive = flat fitted curve, though single readings scatter; the % refers to the signal ratio. Only a selection was taken, and actives are over-represented in it overall.
// allowed return values: YES for active, NO for inactive

Solved cases below.
- compound: "CC(=O)N(C1=NCCCS1)c1ccc(F)cc1"
  answerLabel: "YES"
- compound: "O=C1NC(=O)C(=Cc2ccsc2)C(=O)N1"
  answerLabel: "NO"
- compound: "Cc1nc2ccccc2c(=O)n1-c1ccc(Cl)c(Cl)c1"
  answerLabel: "NO"
- compound: "CC1(C)COC(Nc2ccc(Cl)cc2)=N1"
  answerLabel: "NO"
- compound: "CC1CCCCN1CCNS(=O)(=O)c1ccc2c(c1)oc(=O)n2C (configuration not stated)"
  answerLabel: "YES"
- compound: "Cn1c(=O)c2c(nc(N/N=C/c3c(O)n(-c4ccccc4)c(=S)[nH]c3=O)n2C)n(C)c1=O"
  answerLabel: "NO"

Name the outcome recorded for Cc1ccc(N2C(=O)/C(=C/c3ccc(CN(CCC#N)S(C)(=O)=O)o3)C(=O)NC2=S)cc1 in the assay. NO
